Values compiled from paper PMC4148169.

ASSAY SYSTEM: CYP1A2 (Homo sapiens)
Sequence (P05177 whole entry): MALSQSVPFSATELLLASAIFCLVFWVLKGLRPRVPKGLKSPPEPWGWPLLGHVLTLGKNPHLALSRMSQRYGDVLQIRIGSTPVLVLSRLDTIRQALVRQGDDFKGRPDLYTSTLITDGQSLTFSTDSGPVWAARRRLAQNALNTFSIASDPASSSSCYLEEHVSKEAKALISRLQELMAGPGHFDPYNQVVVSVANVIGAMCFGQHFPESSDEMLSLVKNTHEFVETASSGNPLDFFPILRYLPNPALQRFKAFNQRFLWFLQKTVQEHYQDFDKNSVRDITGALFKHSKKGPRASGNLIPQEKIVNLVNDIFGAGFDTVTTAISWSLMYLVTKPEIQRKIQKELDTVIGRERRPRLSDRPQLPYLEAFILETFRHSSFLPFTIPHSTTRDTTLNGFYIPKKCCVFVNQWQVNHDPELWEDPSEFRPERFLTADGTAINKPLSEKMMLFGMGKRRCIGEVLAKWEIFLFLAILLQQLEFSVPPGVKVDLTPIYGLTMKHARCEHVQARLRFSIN
EXPERIMENT SUMMARY: CYP inhibition in human liver microsomes, 1A2
Assay type: in vitro ADME
MEASUREMENT LABEL: inhibition at 1 µM (%)
Dear colleague, please return just the value in %, with no unit written.

Ask: I am curious: what inhibition at 1 µM value has been reported for CC[C@@H]([C@H](C)O)n1ncn(-c2ccc(N3CCN(c4ccc(OC[C@@H]5CO[C@@](Cn6cncn6)(c6ccc(F)cc6F)C5)cc4)CC3)cc2)c1=O [Posaconazole] ?
Reply: -11

----------
ASSAY SYSTEM: UniProtKB P08684
Sequence (P08684 whole entry): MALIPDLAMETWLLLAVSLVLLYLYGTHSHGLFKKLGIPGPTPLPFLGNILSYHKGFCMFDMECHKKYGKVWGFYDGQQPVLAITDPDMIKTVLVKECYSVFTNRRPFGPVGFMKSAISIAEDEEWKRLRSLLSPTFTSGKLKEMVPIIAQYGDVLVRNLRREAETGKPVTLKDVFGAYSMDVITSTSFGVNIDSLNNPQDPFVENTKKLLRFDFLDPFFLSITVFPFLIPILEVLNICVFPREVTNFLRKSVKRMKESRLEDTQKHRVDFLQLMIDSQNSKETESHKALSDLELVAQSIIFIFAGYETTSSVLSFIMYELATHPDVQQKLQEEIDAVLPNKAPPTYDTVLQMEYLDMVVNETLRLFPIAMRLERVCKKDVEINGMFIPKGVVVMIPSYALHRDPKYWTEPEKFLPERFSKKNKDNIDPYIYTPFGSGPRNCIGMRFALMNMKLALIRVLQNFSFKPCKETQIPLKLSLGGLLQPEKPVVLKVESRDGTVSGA
EXPERIMENT SUMMARY: CYP inhibition in human liver microsomes, 3A4
Assay type: in vitro ADME
MEASUREMENT LABEL: inhibition at 1 µM (%)
Dear colleague, please return just the value in %, with no unit written.

Ask: I am curious: what inhibition at 1 µM value has been reported for CC[C@@H]([C@H](C)O)n1ncn(-c2ccc(N3CCN(c4ccc(OC[C@@H]5CO[C@@](Cn6cncn6)(c6ccc(F)cc6F)C5)cc4)CC3)cc2)c1=O ?
Reply: 68
